test-target: Retinoic acid receptor alpha (Homo sapiens)
protocol-description: ATG_DR5_RAR_CIS: Attagene CIS-FACTORIAL HepG2 Assay for human Retinoic Acid Receptor Alpha (RARE), DR5 submotif (AID 2282934)
condition: HepG2 Attagene cis-factorial RARE DR5 reporter, mRNA; actives raise or lower the signal
Activity calls are given as the source filed them. Rule for the calls: active = hit-call score of the fitted dose curve at least 0.9, where 1 is the maximum; inactive = score below 0.9.
Pick one: class 1 for active, class 0 for inactive

Study these solved cases before continuing.
{"molecule": "CCC(C)(CC)c1cc(NC(=O)c2c(OC)cccc2OC)on1", "class": "class 1"}
{"molecule": "CC1=C2C[C@H]3[C@@H](CC=C4C[C@@H](O)CC[C@@]43C)[C@@H]2CC[C@]12O[C@@H]1C[C@H](C)CN[C@H]1[C@H]2C", "class": "class 0"}
{"molecule": "Clc1ccc(Cl)cc1", "class": "class 0"}
{"molecule": "OCC(O)CO", "class": "class 0"}

**Query** Test call, this molecule: Cc1cccc([N+](=O)[O-])c1
**Result** class 0

**Query** Could you kindly confirm the outcome this assay logged for O=C(N[C@H]1CN2CCC1CC2)c1cc2ccoc2cn1 ?
**Result** class 0

**Query** Just curious, what result did CCOC(=O)C(O)(c1ccc(Cl)cc1)c1ccc(Cl)cc1 get here?
**Result** class 0
